Documented growth inhibition by drug plus 177Lu-lilotomab satetraxetan across a set of molecules
Tested on: U-2932
RUN_DESCRIPTION: growth inhibition by drug plus 177Lu-lilotomab satetraxetan (1 - RLU/untreated control) (fraction); higher = stronger inhibition
SETTINGS: 1000 nM; time (day): 3; 177Lu-lilotomab satetraxetan 1 ug/ml
Structures can show the parent of a compound that is named as a salt.
QUANTITY_MEASURED: growth inhibition by drug plus 177Lu-lilotomab satetraxetan

>  <MOLECULE>
CC(C)C[C@H](NC(=O)[C@@H](O)[C@H](N)Cc1ccccc1)C(=O)O [Ubenimex (Bestatin)]

>  <OBS_VALUE>
-0.112

$$$$
>  <MOLECULE>
COc1ccc(CNC(=O)Nc2ncc([N+](=O)[O-])s2)cc1

>  <OBS_VALUE>
0.116

$$$$
>  <MOLECULE>
CCC(C)n1ncn(-c2ccc(N3CCN(c4ccc(OCC5COC(Cn6cncn6)(c6ccc(Cl)cc6Cl)O5)cc4)CC3)cc2)c1=O (centres undefined) [Itraconazole (Sporanox)]

>  <OBS_VALUE>
0.102

$$$$
>  <MOLECULE>
CCn1c(-c2nonc2N)nc2c(C#CC(C)(C)O)ncc(OC[C@H]3CCCNC3)c21

>  <OBS_VALUE>
0.596

$$$$
>  <MOLECULE>
COc1ccc(/C=C\c2cc(OC)c(OC)c(OC)c2)cc1O [Combretastatin A4]

>  <OBS_VALUE>
0.965

$$$$
>  <MOLECULE>
CC/C(=C(\c1ccccc1)c1ccc(OCCN(C)C)cc1)c1ccccc1 [Tamoxifen Citrate (Nolvadex)]

>  <OBS_VALUE>
0.075

$$$$
>  <MOLECULE>
C#CCN(C)CC1=Cc2ccccc2Oc2ccccc21

>  <OBS_VALUE>
0.0289

$$$$
>  <MOLECULE>
CC1(CN2CCC(n3c(=O)[nH]c4ccccc43)CC2)OCc2ccccc2-n2cccc21 (centres undefined)

>  <OBS_VALUE>
-0.0292

$$$$
>  <MOLECULE>
O=C(CCCCCCC(=O)Nc1ccccc1)NO [Vorinostat (SAHA)]

>  <OBS_VALUE>
0.849

$$$$

###

System: U-2932
RUN_DESCRIPTION: growth inhibition by drug alone (1 - RLU/untreated control) (fraction); higher = stronger inhibition
SETTINGS: 10 nM; time (day): 6; 177Lu-lilotomab satetraxetan 0 ug/ml
Structures can show the parent of a compound that is named as a salt.
// bucketize growth inhibition by drug alone: interval 1 (below -0.1), interval 2 (-0.1 to below -0.01), interval 3 (-0.01 or more)

>  <COMPOUND>
Cc1ccc(NC(=O)c2ccc(CN3CCN(C)CC3)cc2)cc1Nc1nccc(-c2cccnc2)n1

>  <TARGET>
U-2932

>  <LABEL_VALUE>
interval 1

$$$$
>  <COMPOUND>
COc1cc(Nc2ncc(F)c(Nc3ccc4c(n3)NC(=O)C(C)(C)O4)n2)cc(OC)c1OC [R406(free base)]

>  <TARGET>
U-2932

>  <LABEL_VALUE>
interval 1

$$$$
>  <COMPOUND>
CC(C)C[C@H](NC(=O)CNC(=O)c1cc(Cl)ccc1Cl)B(O)O

>  <TARGET>
U-2932

>  <LABEL_VALUE>
interval 3

$$$$
>  <COMPOUND>
CO[C@@H](C(=O)N1Cc2[nH]nc(NC(=O)c3ccc(N4CCN(C)CC4)cc3)c2C1)c1ccccc1

>  <TARGET>
U-2932

>  <LABEL_VALUE>
interval 2

$$$$
>  <COMPOUND>
O=C(O)CCCc1ccccc1 [4-Phenylbutyrate]

>  <TARGET>
U-2932

>  <LABEL_VALUE>
interval 1

$$$$
>  <COMPOUND>
N#CC1(c2ccc(NC(=O)c3cccnc3NCc3ccncc3)cc2)CCCC1

>  <TARGET>
U-2932

>  <LABEL_VALUE>
interval 2

$$$$
>  <COMPOUND>
CNC(=O)c1cc(COc2nnc(Nc3ccc(Cl)cc3)c3ccoc23)ccn1

>  <TARGET>
U-2932

>  <LABEL_VALUE>
interval 1

$$$$
>  <COMPOUND>
CCCS(=O)(=O)Nc1ccc(F)c(C(=O)c2c[nH]c3ncc(-c4ccc(Cl)cc4)cc23)c1F

>  <TARGET>
U-2932

>  <LABEL_VALUE>
interval 1

$$$$
>  <COMPOUND>
CC#C[C@]1(O)CC[C@H]2[C@@H]3CCC4=CC(=O)CCC4=C3[C@@H](c3ccc(N(C)C)cc3)C[C@@]21C

>  <TARGET>
U-2932

>  <LABEL_VALUE>
interval 3

$$$$
>  <COMPOUND>
COc1cc([C@@H]2c3cc4c(cc3[C@@H](O[C@@H]3O[C@@H]5CO[C@@H](C)O[C@H]5[C@H](O)[C@H]3O)[C@H]3COC(=O)[C@H]23)OCO4)cc(OC)c1O [Etoposide (VP-16)]

>  <TARGET>
U-2932

>  <LABEL_VALUE>
interval 2

$$$$
>  <COMPOUND>
COc1cc2ncnc(Nc3ccc(Oc4ccccc4)cc3)c2cc1OC

>  <TARGET>
U-2932

>  <LABEL_VALUE>
interval 2

$$$$
>  <COMPOUND>
CNNCc1ccc(C(=O)NC(C)C)cc1 [Procarbazine hydrochloride (Matulane)]

>  <TARGET>
U-2932

>  <LABEL_VALUE>
interval 1

$$$$
>  <COMPOUND>
C[C@H](NC(=O)Cc1cc(F)cc(F)c1)C(=O)N[C@@H]1C(=O)N(C)c2ccccc2-c2ccccc21

>  <TARGET>
U-2932

>  <LABEL_VALUE>
interval 3

$$$$
>  <COMPOUND>
CO[C@H]1C[C@@H]2CC[C@@H](C)[C@@](O)(O2)C(=O)C(=O)N2CCCC[C@H]2C(=O)O[C@H]([C@H](C)C[C@@H]2CC[C@@H](OCCO)[C@H](OC)C2)CC(=O)[C@H](C)/C=C(\C)[C@@H](O)[C@@H](OC)C(=O)[C@H](C)C[C@H](C)/C=C/C=C/C=C/1C [Everolimus (RAD001)]

>  <TARGET>
U-2932

>  <LABEL_VALUE>
interval 3

$$$$
